Reference source: paper PMC10786891

Measured Kd values are reported for all entries that follow.
# Target: T1, EsCas13d, nuclease-dead (Eubacterium siraeum, UniProt B0MS50, R295A;H300A;R849A;H854A)
# T1 sequence: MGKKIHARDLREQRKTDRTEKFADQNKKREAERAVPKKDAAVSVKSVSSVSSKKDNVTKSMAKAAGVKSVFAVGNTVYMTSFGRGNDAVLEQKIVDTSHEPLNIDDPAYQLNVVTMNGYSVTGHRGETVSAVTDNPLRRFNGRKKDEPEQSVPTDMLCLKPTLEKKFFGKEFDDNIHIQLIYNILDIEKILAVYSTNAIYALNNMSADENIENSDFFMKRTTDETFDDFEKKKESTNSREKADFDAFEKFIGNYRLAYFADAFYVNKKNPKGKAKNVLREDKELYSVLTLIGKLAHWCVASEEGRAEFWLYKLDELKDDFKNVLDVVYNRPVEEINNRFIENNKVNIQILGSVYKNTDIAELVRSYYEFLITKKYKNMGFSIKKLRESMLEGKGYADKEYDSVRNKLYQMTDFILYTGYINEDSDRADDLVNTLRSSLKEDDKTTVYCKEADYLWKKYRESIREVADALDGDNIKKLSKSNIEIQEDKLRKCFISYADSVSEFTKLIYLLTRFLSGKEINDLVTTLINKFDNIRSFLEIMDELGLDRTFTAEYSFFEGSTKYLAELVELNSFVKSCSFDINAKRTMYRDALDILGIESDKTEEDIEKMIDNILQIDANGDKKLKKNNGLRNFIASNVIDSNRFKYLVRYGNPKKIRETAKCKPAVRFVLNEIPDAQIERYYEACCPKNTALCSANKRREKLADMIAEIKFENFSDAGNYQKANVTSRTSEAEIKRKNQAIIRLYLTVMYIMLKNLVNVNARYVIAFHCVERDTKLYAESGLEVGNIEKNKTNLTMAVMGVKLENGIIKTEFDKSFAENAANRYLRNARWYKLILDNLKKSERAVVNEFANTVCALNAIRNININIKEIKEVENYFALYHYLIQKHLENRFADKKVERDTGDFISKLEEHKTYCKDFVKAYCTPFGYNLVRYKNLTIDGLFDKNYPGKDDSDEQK
# Test Summary: crRNA (strand 1, pre-loaded); Mg2+; 40 mM Tris-HCl pH 7.5, 150 mM NaCl, 6 mM MgCl2, 1 mM DTT, 0.1% Tween-20, 0.2 mg/ml BSA; 25 C; 10 min per concentration, then washed
# Test Context: tags: His6-TwinStrep-SUMO cleaved; N-terminal SNAP kept (SNAP-Surface 488); label: 3' end held by stalled T7 RNA polymerase
Your answer is read as nM, so omit the unit and give the number.

>  <Binder>
target 2 MT 5'PFS UAA 3'PFS UGU (mixed) RNA 1: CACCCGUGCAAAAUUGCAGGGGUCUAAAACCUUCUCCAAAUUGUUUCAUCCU RNA 2: GGGAAUGGAUCCACAUCUACGAAUUCUAAAGGAUGAAACAAUUUGGAGAAGUGUAGAUCGGAAGAGCACACGU

>  <Readout Unit>
nM

>  <Quantitative Result>
9.5

$$$$

Let us move to another entry and its Kd.
Challenge: Can you share its Kd? I mean this binder: target 3 U10C (mixed) RNA 1: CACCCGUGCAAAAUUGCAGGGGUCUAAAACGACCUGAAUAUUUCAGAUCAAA RNA 2: GGGAAUGGAUCCACAUCUACGAAUUCGUUUUUGAUCUGAAACAUUCAGGUCUGCAGAUCGGAAGAGCACACGU
Response given: 88
